Would you kindly list pIC50 for each of these compounds?
# measured_on: UniProt:B2RXH2
# Sequence (B2RXH2 1-337): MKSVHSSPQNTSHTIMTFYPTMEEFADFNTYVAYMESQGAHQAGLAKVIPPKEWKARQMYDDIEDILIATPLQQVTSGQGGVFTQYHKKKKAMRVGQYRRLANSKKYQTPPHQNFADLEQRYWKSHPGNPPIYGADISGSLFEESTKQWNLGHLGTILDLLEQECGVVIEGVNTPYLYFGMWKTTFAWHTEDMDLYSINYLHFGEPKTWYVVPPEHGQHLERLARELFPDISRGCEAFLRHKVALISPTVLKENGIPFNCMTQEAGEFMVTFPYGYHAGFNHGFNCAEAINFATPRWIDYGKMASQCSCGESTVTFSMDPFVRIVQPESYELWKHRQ
# assay_explanation: biochemical
Structures can show the parent of a compound that is named as a salt.
Interpret pIC50 as the negative base-10 log of the concentration measured in mol/L.

Q) Find the recorded pIC50 belonging to `CC1(C)CCC2=C(O1)c1ccccc1C(=O)C2=O` and report it.
A) 5.08

Q) Find the recorded pIC50 belonging to NCCc1ccc(O)c(O)c1 [Dopamine hydrochloride] and report it.
A) 5.66

Q) Find the recorded pIC50 belonging to `O=c1cc(-c2ccccc2)oc2cc(O)c(O)c(O)c12` and report it.
A) 5.35

Q) Find the recorded pIC50 belonging to `Oc1cc2c(cc1O)[C@@H]1c3ccc(O)c(O)c3OC[C@]1(O)C2` and report it.
A) 5.47

Q) Find the recorded pIC50 belonging to NCCc1cc(O)c(O)cc1O [Oxidopamine Hydrochloride] and report it.
A) 4.91

Q) Find the recorded pIC50 belonging to Oc1ccc(C2CNCCc3c2cc(O)c(O)c3Cl)cc1 (stereo not drawn) [Fenoldopam bromide] and report it.
A) 5.00

----------
# measured_on: JMJD2E (Homo sapiens)
# Sequence (B2RXH2 1-337): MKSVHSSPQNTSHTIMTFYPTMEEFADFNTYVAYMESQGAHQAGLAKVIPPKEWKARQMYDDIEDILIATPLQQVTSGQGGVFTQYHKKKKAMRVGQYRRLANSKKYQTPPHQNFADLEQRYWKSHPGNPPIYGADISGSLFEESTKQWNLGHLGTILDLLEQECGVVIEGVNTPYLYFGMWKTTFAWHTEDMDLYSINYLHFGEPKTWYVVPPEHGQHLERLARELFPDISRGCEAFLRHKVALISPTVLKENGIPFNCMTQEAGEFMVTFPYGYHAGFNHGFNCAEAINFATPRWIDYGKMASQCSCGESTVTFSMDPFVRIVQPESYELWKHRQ
Would you kindly list IC50 for each of these compounds?
Form entry: value (µM) — number only.

Q) Find the recorded IC50 belonging to O=C(O[C@@H]1Cc2c(O)cc(O)cc2O[C@@H]1c1cc(O)c(O)c(O)c1)c1cc(O)c(O)c(O)c1 [Epigallocatechin gallate] and report it.
A) 3

Q) Find the recorded IC50 belonging to `C[C@](N)(Cc1ccc(O)c(O)c1)C(=O)O` and report it.
A) 6.1
